- test_system: yeast 20S proteasome, chymotrypsin-like (ChT-L) activity (Saccharomyces cerevisiae, UniProt P30656)
- experimental_protocol: ChT-L activity of SDS-activated yeast 20S proteasome (Suc-LLVY-AMC)
- particulars: ChT-like Yeast 20S IC50, SDS-activated yeast 20S, [E] 0.9 nM, pH 8.1, 37°C, 30 min incubation, Suc-LLVY-AMC 5.2 µM
Peptide text beside a SMILES is read from it.
experimental_endpoint: pIC50
Scale for pIC50: -log10 of concentration given in mol/L; no unit attached.

For the molecule CC[C@H](C)[C@@H]1NC(=O)[C@@H]2CCCN2C(=O)[C@H](CCCCN)NC(=O)[C@H](CC(C)C)NC(=O)[C@H](CO)NC(=O)[C@H](CCCCN)NC(=O)[C@H]([C@@H](C)O)NC(=O)[C@@H](NC(=O)[C@H](CCCNC(=N)N)NC(=O)CN)CSSC[C@@H](C(=O)N[C@@H](Cc2ccccc2)C(=O)N2CCC[C@H]2C(=O)N[C@@H](CC(=O)O)C(=O)O)NC1=O [Analogue II] (HELM PEPTIDE1{G.R.C.T.K.S.L.K.P.I.C.F.P.D}$PEPTIDE1,PEPTIDE1,3:R3-11:R3$$$V2.0) , what pIC50 is on record?
5.67
